Hi! I'm sharing some MIC results obtained with Staphylococcus aureus ssp. aureus (ATCC 6538).

Task: Need MIC of O=C(O[C@@H]1[C@H](OC(=O)c2ccccc2)[C@@H](Sc2ccccc2)O[C@H](C[N+]2=C3CCCCCN3CCC2)[C@H]1OCc1ccc2ccccc2c1)c1ccccc1 [Compound 23] , thanks.
Result: > 100 µg/mL

Task: Param item: O[C@@H]1[C@H](OCc2ccccc2)[C@@H](Sc2ccccc2)O[C@H](C[N+]2=C3CCCCCN3CCC2)[C@H]1OCc1ccccc1 [Compound 49]
Result: > 100 µg/mL

Task: Param item: O[C@H]1[C@@H](OCc2ccccc2)[C@H](OCc2ccc3ccccc3c2)[C@@H](C[N+]2=C3CCCCCN3CCC2)O[C@@H]1Sc1ccccc1 [Compound 53]
Result: 6.25 to 50 µg/mL

Task: Param item: CCS[C@H]1O[C@H](C[N+]23CCN(CC2)CC3)[C@@H](OCc2ccc3ccccc3c2)[C@@H](OC(=O)c2ccccc2)[C@H]1OC(=O)c1ccccc1 [Compound 32]
Result: 6.25 to 50 µg/mL

Task: Param item: O=C(O[C@H]1[C@H](OC(=O)c2ccccc2)[C@@H](Sc2ccccc2)O[C@H](C[N+]2=C3CCCCCN3CCC2)[C@H]1OCc1ccc2ccccc2c1)c1ccccc1 [Compound 38]
Result: > 100 µg/mL

Task: Param item: CCS[C@H]1O[C@H](C[N+]2=C3CCCCCN3CCC2)[C@@H](OCc2ccc3ccccc3c2)[C@H](OC(=O)c2ccccc2)[C@H]1OC(=O)c1ccccc1 [Compound 11]
Result: > 100 µg/mL
